Just for reference, patent US8022091B2 is where these values come from.

Biological target: human Edg-1 (S1P1) (Homo sapiens, UniProt P21453)
Construct: expressed in transfected cells; host or cells: HEK-293
Sequence (P21453 whole entry): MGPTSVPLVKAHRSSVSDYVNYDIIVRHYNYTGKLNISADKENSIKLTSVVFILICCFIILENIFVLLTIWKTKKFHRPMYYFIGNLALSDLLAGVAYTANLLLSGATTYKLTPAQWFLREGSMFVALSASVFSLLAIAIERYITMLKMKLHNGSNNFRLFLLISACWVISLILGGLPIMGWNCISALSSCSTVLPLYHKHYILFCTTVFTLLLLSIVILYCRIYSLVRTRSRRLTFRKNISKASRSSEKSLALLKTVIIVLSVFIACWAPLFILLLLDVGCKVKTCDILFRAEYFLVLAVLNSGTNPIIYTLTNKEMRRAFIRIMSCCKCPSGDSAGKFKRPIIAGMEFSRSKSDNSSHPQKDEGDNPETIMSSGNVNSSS
Test: S1P1 binding assay: inhibition of [33P]-S1P binding to membrane fraction of HEK-293 cells transferred with the human Edg-1 (S1P1) gene
Conditions: test compound at 10 μM; inhibition of [33P]-S1P binding to the membrane fraction of HEK-293 cells expressing human Edg-1 (S1P1)
observable: inhibition at 10 µM (%)

# smilesEntry, systemTested, unitsText, reportedResult
data = [
    ("CCn1c(Oc2cccc(OC)c2)nnc1[C@@H](C)NS(=O)(=O)c1ccc(Cl)c(Cl)c1", "human Edg-1 (S1P1) (Homo sapiens, UniProt P21453)", "%", 103),
    ("CCn1c(Oc2cccc(C(=O)O)c2)nnc1[C@@H](C)NS(=O)(=O)c1ccc(Cl)c(Cl)c1", "human Edg-1 (S1P1) (Homo sapiens, UniProt P21453)", "%", 74.2),
    ("CCn1c(Oc2ccc3[nH]ccc3c2)nnc1[C@@H](C)NS(=O)(=O)c1ccc(Cl)c(Cl)c1", "human Edg-1 (S1P1) (Homo sapiens, UniProt P21453)", "%", 105),
    ("CCn1c(Oc2ccc(F)cc2)nnc1[C@@H](C)NS(=O)(=O)c1cc(Br)ccc1OC", "human Edg-1 (S1P1) (Homo sapiens, UniProt P21453)", "%", 74.7),
]
